These measurements were taken from PubChem BioAssay (NCI).

Test system: COLO 205 colon
protocol_details: NCI-60 one-dose screen, 48 h (100 = growth as untreated, 0 = no growth, -100 = all killed)
stated_conditions: 10 µM unless noted
Compounds without any hit were thinned out: in the full panel of roughly 83,000, 20% have a hit.

{"columns": ["compound", "growth (%)"],
 "data": [
  ["CN(C)CCNC(=O)c1ccc(-c2nc3ccc4[nH]ncc4c3c3c2COCC3)cc1", -52.3],
  ["Cc1ccc2sc3c(c2c1)OC(N)=C(C#N)C3c1ccc(Cl)cc1 (stereo not drawn)", 96.7],
  ["C=C(C)[C@@H]1CC[C@]2(C(=O)NCCCCCN(CCC#N)CCC#N)CC[C@]3(C)[C@H](CC[C@@H]4[C@@]5(C)CCC(=O)C(C)(C)[C@@H]5CC[C@]43C)[C@@H]12", 111],
  ["C=C1CC[C@@H]2[C@]3(C)COC(c4ccccc4)O[C@@H]3CC[C@@]2(C)[C@@H]1C/C=C1/C(=O)OC[C@H]1O (stereo partly drawn)", 108],
  ["COc1c(N2CC3CCCNC3C2)c(F)cc2c(=O)c(C(=O)N/N=C/c3ccc4c(c3)OCO4)cn(C3CC3)c12 (stereo not drawn)", 85.5],
  ["Nn1c(N/N=C/c2nc3ccccc3s2)n[nH]c1=S", 115],
  ["NC(=O)c1c(NC(=O)c2ccc(F)cc2F)sc2c1CCC(=O)C2", 98.7],
  ["O=C(CSc1nc2ccccc2c(=O)n1-c1ccccc1)Nc1ccc(-c2nc3ccc([N+](=O)[O-])cc3[nH]2)cc1", 110]
]}
